The origin of these recorded values is paper PMC3797739.

Each entry below carries its reported pIC50.
target: L. mexicana CPB2.8∆CTE (Leishmania mexicana)
Sequence (P36400 126-343): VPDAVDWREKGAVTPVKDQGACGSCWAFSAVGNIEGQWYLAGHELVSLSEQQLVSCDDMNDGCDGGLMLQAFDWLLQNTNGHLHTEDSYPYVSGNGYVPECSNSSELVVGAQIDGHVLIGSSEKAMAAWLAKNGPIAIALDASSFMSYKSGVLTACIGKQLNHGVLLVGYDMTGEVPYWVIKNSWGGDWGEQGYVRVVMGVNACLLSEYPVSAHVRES
pIC50: −log10 of the molar value.
observable: pIC50

{"structureSmiles": "COc1ncccc1Nc1nc(C#N)nc(NC2CCCCC2)n1", "observable": "pIC50", "readoutValue": 5.96}
{"structureSmiles": "NC(=O)N/N=c1\\oc2ccccc2cc1-c1nc2ccccc2[nH]1", "observable": "pIC50", "readoutValue": 8.00}
{"structureSmiles": "NC(=S)NN=Cc1c(-c2ccccc2)[nH]c2ccccc12", "observable": "pIC50", "readoutValue": 7.22}
{"structureSmiles": "COc1ccc(-c2ccc(/C=N/NC(N)=S)o2)cc1", "observable": "pIC50", "readoutValue": 7.15}

* * *

Ki values recorded for UniProt:P36400

{"structureSmiles": "COc1ccc(-c2ccc(/C=N/NC(N)=S)o2)cc1", "Ki / nM": 40}
{"structureSmiles": "NC(=O)N/N=c1\\oc2ccccc2cc1-c1nc2ccccc2[nH]1", "Ki / nM": 5}
{"structureSmiles": "COc1ncccc1Nc1nc(C#N)nc(NC2CCCCC2)n1", "Ki / nM": 570}
